# experimental.system: GLP-1R on Tag-Lite Glucagon GLP-1 labeled cells
# Sequence (P43220 24-463): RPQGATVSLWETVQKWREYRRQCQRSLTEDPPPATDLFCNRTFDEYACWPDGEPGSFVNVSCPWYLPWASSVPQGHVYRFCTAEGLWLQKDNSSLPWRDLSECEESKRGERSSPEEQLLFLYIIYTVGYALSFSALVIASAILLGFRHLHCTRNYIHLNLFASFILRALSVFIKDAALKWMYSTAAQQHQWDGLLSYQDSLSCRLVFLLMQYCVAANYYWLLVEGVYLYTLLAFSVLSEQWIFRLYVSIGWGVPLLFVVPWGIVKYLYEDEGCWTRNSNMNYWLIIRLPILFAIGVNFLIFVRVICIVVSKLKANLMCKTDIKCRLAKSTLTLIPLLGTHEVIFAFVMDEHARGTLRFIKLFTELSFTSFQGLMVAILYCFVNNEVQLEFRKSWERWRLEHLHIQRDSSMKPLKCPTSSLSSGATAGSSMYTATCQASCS
# protocol: Tag-Lite GLP-1R binding FRET competition assay on cells, with 2% HSA; competitor: red agonist
Starred links: 1 amine or outer side, 2 acyl side, 3 side chain; linkers in the order of their positions; H or OH if unused. Non-standard residues stand in square brackets, D forms with d. Groups on a side chain read outwards from the residue. No end group written: not given here. *: point of attachment. (CH2)18‑OH = polymethylene chain of 18 CH2 units ending in OH (m = 18), OCCCCCCCCCCCCCCCCCC*; γGlu = O=C(O)[C@H](CCC(=O)[*:2])N[*:1]; Dap = NC[C@H](N)C(=O)O; AEEA = NCCOCCOCC(=O)O; Aib = CC(C)(N)C(=O)O
quantity.name: log10(IC50) (log10 of the value in µM)

{"columns": ["binder", "log10(IC50)"],
 "data": [
  ["HXEGTFTSDVSSXLEGQAAKEFIAWLVRGRG (GLP-1 numbering (first residue is Xaa7): Aib at Xaa8 and Xaa19; ε-amino group of Lys26 substituted with AEEA-AEEA-γ-Glu-(CH2)m-OH, m is 18) [APi3711]", 1.89],
  ["H[Aib]EGTFTSDVSS[Aib]LEGQAAK([AEEA-AEEA-γGlu-(CH2)18‑OH])EFIAWLVRG[Dap]G [APi3712]", 2.25],
  ["H[Aib]EGTFTSDVSSY[Aib]EGQAAK([AEEA-AEEA-γGlu-(CH2)18‑OH])EFIAWLVGGPSSGAPPPS-NH2 [APi3713]", 1.98],
  ["Y[Aib]EGTFTSDVSS[Aib]LEGQAAK([AEEA-AEEA-γGlu-(CH2)18‑OH])EFIAWLVRGRG [APi3709]", 2.11],
  ["HXEGTFTSDVSSXLEGQAAKEFIAWLVRGRG (GLP-1 numbering (first residue is Xaa7): Aib-ψ[CH2NH] at Xaa8 (reduced peptide bond between Aib and the next residue); Aib at Xaa19; ε-amino group of Lys26 substituted with AEEA-AEEA-γ-Glu-(CH2)m-OH, m is 18) [APi3710]", 2.91]
]}
